Each record here notes measured pIC50.
- target: GSK3α (GST-full length GSK3α) (Homo sapiens (Human), UniProt P49840)
- Sequence (P49840 whole entry): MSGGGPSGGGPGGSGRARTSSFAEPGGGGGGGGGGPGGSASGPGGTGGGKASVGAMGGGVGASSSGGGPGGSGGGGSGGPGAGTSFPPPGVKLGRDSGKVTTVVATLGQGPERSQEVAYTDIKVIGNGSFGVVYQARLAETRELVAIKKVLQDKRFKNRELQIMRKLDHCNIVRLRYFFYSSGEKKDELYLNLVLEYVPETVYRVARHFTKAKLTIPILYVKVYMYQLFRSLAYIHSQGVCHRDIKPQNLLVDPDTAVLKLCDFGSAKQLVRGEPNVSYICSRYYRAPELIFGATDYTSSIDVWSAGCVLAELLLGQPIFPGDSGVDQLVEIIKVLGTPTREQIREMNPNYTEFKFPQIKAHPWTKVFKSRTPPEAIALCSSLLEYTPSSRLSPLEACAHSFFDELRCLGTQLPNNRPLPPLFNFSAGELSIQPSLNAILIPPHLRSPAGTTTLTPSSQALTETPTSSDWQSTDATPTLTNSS
- method.summary: GSK3α TR-FRET kinase assay
- Format: biochemical
- assay.conditions: 1 nM GSK3α, 4 μM ATP, 30 minute preincubation; geometric mean; read-out: GSK3-A TR-FRET BIOCHEMICAL (TR-FRET); GMean; IC50
- Description: TR-FRET Assay: The assay was performed in a white, 384 well, low volume, flat bottom plate (Grenier). After a 30 minute preincubation in assay buffer with the indicated concentration of compound, the kinase activity was initiated by the addition of the substrates. […] After 60 min at room temperature the plate was read on Envision plate reader using Ex: 340 nm, Em: 615 nm and […]. The normalized 665/615 Signal ratio versus log compound concentration was analyzed by XLFIT to yield IC50 values.
pIC50: −log10 of the molar value.
readout.name: pIC50

molecule="CCC1(c2cccc(OC)c2)C2=C(CC(C)(C)CC2=O)Nc2n[nH]cc21 (stereo not shown)" readout_name=pIC50 measured_result="6.00 to 7.00"
molecule=CC[C@@]1(c2cccc(-c3ccnc4ccc(C)cc34)c2)C2=C(CC(C)(C)NC2=O)Nc2n[nH]cc21 readout_name=pIC50 measured_result="< 5.30"
molecule=CC[C@]1(c2cccc(N3CCCCC3)c2)C2=C(CC(C)(C)CC2=O)Nc2n[nH]c(C(F)(F)F)c21 readout_name=pIC50 measured_result="≥ 7.00"
molecule="CCC1(c2cccc(Br)c2)C2=C(CC(C)CC2=O)Nc2n[nH]c(C(F)(F)F)c21 (stereo not shown) [Compound 828849]" readout_name=pIC50 measured_result="6.00 to 7.00"
molecule="CCC1(c2cccc(-c3ccncc3Cl)c2)C2=C(CC(C)(C)NC2=O)Nc2n[nH]cc21 (stereo not shown) [Compound 948020]" readout_name=pIC50 measured_result="6.00 to 7.00"
molecule="CCC1(c2cccc(Cl)c2)C2=C(CC(C)(C)CC2=O)Nc2n[nH]c(C)c21 (stereo not shown)" readout_name=pIC50 measured_result="< 5.30"
molecule="CCC1(c2cccc(-c3ccnc(C)c3)c2)C2=C(CC(C)(C)N(C)C2=O)Nc2n[nH]cc21 (stereo not shown) [Compound 948302]" readout_name=pIC50 measured_result="≥ 7.00"
